tested_system: Progesterone receptor (Homo sapiens)
Sequence (P06401 whole entry): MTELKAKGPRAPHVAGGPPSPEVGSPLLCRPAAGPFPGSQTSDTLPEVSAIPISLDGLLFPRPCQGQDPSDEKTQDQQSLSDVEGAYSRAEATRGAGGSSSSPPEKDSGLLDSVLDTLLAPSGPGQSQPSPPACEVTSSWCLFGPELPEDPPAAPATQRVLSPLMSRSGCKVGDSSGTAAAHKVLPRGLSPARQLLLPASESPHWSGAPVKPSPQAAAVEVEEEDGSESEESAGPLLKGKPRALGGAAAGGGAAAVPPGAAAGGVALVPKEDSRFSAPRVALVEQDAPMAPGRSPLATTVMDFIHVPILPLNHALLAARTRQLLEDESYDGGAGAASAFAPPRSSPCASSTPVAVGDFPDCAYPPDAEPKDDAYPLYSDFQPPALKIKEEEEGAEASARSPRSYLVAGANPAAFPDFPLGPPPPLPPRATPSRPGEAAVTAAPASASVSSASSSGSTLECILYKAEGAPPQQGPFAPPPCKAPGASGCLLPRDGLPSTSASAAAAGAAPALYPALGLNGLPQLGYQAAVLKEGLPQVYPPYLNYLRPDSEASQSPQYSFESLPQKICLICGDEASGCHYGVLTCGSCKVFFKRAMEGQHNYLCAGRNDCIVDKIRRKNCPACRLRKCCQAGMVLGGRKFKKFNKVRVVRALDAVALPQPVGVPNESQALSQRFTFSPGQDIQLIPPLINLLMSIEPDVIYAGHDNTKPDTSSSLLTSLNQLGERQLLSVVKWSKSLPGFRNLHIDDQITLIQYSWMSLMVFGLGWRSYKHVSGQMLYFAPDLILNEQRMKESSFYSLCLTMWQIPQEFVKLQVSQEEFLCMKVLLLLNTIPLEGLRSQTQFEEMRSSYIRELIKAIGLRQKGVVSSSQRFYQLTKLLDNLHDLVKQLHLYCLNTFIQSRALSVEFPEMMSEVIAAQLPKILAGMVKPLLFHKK
assay_text: Antagonist activity at progesterone receptor in human T47D cells assessed as inhibition of progesterone-induced alkaline phosphatase activity
Reported IC50 values for the following compounds.
readout: IC50

| smiles | tested_system | readout | measured |
| --- | --- | --- | --- |
| CN(C)c1ccc([C@H]2C[C@@]3(C)[C@@H](CC[C@@]3(O)C#CC(C)(C)O)[C@@H]3OCC4=CC(=O)CCC4=C32)cc1 | Progesterone receptor (Homo sapiens) | IC50 | > 1000 nM |
| CN(C)CC#C[C@]1(O)CC[C@H]2[C@@H]3OCC4=CC(=O)CCC4=C3[C@@H](c3ccc(N(C)C)cc3)C[C@@]21C | Progesterone receptor (Homo sapiens) | IC50 | > 1000 nM |
| CN(C)c1ccc([C@H]2C[C@@]3(C)[C@@H](CC[C@@]3(O)C#CC(F)(F)F)[C@@H]3OCC4=CC(=O)CCC4=C32)cc1 | Progesterone receptor (Homo sapiens) | IC50 | 9.3 nM |

Where do the numbers come from? From ChEMBL document CHEMBL1144574.
